target: PARP-1 (Homo sapiens, UniProt P09874); experiment: Classification of PARPi by allosteric effects; details: based on HXMS and DNA binding studies
Sequence (P09874 whole entry): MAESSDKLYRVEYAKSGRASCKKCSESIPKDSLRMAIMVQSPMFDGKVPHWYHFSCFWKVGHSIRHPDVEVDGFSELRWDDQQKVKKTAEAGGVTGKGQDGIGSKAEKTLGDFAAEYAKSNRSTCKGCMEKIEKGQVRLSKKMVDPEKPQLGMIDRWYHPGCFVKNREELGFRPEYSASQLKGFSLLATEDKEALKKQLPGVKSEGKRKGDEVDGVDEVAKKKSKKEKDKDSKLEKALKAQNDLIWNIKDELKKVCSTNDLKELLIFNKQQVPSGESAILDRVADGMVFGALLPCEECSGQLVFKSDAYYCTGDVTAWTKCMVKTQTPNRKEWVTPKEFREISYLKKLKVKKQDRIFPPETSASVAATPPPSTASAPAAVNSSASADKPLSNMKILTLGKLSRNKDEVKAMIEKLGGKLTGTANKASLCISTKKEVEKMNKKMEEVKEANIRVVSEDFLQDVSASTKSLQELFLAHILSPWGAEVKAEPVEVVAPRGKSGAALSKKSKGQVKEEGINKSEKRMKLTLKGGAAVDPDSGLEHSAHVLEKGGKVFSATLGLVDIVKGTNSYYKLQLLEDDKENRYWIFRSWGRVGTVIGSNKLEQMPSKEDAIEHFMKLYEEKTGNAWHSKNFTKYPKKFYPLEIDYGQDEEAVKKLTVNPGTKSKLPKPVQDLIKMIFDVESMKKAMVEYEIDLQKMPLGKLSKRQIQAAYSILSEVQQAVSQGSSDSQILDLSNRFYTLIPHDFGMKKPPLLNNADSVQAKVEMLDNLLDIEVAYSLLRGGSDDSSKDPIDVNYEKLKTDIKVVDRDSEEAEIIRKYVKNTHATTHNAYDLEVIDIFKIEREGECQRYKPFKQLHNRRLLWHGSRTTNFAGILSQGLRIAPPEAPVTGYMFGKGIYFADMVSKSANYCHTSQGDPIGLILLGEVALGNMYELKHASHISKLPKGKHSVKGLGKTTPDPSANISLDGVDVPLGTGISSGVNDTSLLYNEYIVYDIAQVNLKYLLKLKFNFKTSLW
Attribute measured: PARPi type by allosteric effect

The cases that follow already have their PARPi type by allosteric effect on record.
Compound	Test system	Reported
C[C@]1(c2nc3c(C(N)=O)cccc3[nH]2)CCCN1 [veliparib]	PARP-1 (Homo sapiens, UniProt P09874)	Type III
CNCc1ccc(-c2[nH]c3cc(F)cc4c3c2CCNC4=O)cc1 [rucaparib]	PARP-1 (Homo sapiens, UniProt P09874)	Type III
NC(=O)c1cccc([C@@H]2O[C@H](COP(=O)(O)OP(=O)(O)OC[C@H]3O[C@@H](n4cnc5c(N)ncnc54)[C@H](O)[C@@H]3O)[C@@H](O)[C@H]2O)c1 [BAD, benzamide adenine dinucleotide]	PARP-1 (Homo sapiens, UniProt P09874)	Type I
COC(=O)c1cnc(N2CCN(C(=O)c3ccc(-c4nc5c(C(N)=O)cccc5[nH]4)cc3)CC2)nc1 [UKTT15]	PARP-1 (Homo sapiens, UniProt P09874)	Type I
NC(=O)c1cccc2cn(-c3ccc([C@@H]4CCCNC4)cc3)nc12 [niraparib]	PARP-1 (Homo sapiens, UniProt P09874)	Type III

# next compound below
# input compound: Nc1ncnc2c1ncn2[C@@H]1O[C@H](C(=O)N2CCN(CC(=O)Nc3cccc4c3CNC4=O)CC2)[C@@H](O)[C@H]1O [EB-47] ; wanted: its PARPi type by allosteric effect
Type I

---

biological target: PARP-1 (Homo sapiens)
Attribute measured: IC50 (nM)
Your answer should be a plain number; it is taken to be in nM.

Data request, read-out IC50, for COC(=O)c1cnc(N2CCN(C(=O)c3ccc(-c4nc5c(C(N)=O)cccc5[nH]4)cc3)CC2)nc1 [UKTT15]
2.6
